- System: Oocyte
- testProtocol: Activity at rat GABAA alpha-1-beta-2-gamma-2L receptor expressed in Xenopus lavies oocytes assessed as ratio of effect on current at 1 uM drug to absence of compound by electrophysiology method
- Type: cell-based
Documented Ratio across a set of compounds
// response body must contain only the number

Ratio lookup needed for C[C@]12C[C@H]3CC[C@H](CCO)C[C@@H]3C[C@@H]1CC[C@@]21CO1 , thanks.
1.54

// repeat for C[C@]12C[C@H]3C[C@H]4CC[C@@H](O)C[C@@H]4C[C@@H]3C[C@@H]1CC[C@@]21CO1 and report
10.8

// repeat for C[C@]12CC[C@@H]3C[C@H](CCO)CC[C@H]3[C@@H]1CCC2=O and report
1.03
